Reported growth by item:
- Tested on: OVCAR-5 ovarian
- Test Summary: NCI-60 one-dose screen, 48 h (100 = growth as untreated, 0 = no growth, -100 = all killed)
- Measurement Setup: 10 µM unless noted
Compounds without any hit were thinned out: in the full panel of roughly 83,000, 20% have a hit.
Property: growth (%)

[
  {
    "Molecule": "O=c1[nH]c2cc(Cl)c(Cl)cc2o1",
    "Property": "growth",
    "Quantitative Result": 113
  },
  {
    "Molecule": "CCNS(=O)(=O)c1ccc(C)cc1",
    "Property": "growth",
    "Quantitative Result": 97.2
  },
  {
    "Molecule": "O=C(Nc1ccc(Oc2ccc(NC(=O)Nc3ccccc3Cl)cc2)cc1)Nc1ccccc1Cl",
    "Property": "growth",
    "Quantitative Result": 101
  },
  {
    "Molecule": "C[C@]12CCc3nc(Nc4ccc(O)cc4)sc3C1=CC[C@@H]1[C@@H]2CC[C@]2(C)/C(=N/NC(N)=S)CC[C@@H]12",
    "Property": "growth",
    "Quantitative Result": 49.9
  },
  {
    "Molecule": "COc1ccc(C2CC(c3cccc(Nc4ccnc5cc(Cl)ccc45)c3)=NN2c2ccccc2)cc1 (stereo not given)",
    "Property": "growth",
    "Quantitative Result": 85.6
  },
  {
    "Molecule": "COc1ccc(C2C3CCc4ccccc4C3=NN2C(=O)c2cc(OC)c(OC)c(OC)c2)cc1O (stereo not given)",
    "Property": "growth",
    "Quantitative Result": 101
  },
  {
    "Molecule": "C=CCn1c(SCC(=O)Nc2ccc(C(=O)/C=C/c3ccc(Cl)cc3)cc2)nnc1-c1ccc(Cl)cc1",
    "Property": "growth",
    "Quantitative Result": 104
  },
  {
    "Molecule": "CCCC(CCC)NCC(O)c1cc(-c2ccc(C(F)(F)F)cc2)nc(C(F)(F)F)c1 (stereo not given)",
    "Property": "growth",
    "Quantitative Result": -37.9
  },
  {
    "Molecule": "Cc1cc(Cl)c2ccc(N(C)C)cc2n1",
    "Property": "growth",
    "Quantitative Result": 105
  },
  {
    "Molecule": "OC(c1cc2c(Cl)cc(Cl)cc2c2cc(C(F)(F)F)ccc12)C1CCCCN1 (stereo not given)",
    "Property": "growth",
    "Quantitative Result": -78.5
  }
]

----------
- System: UACC-257 melanoma
- Test Summary: NCI-60 one-dose screen, 48 h (100 = growth as untreated, 0 = no growth, -100 = all killed)
- Measurement Setup: 10 µM unless noted
- Experimental: Cells are grown in 96 well plates and exposed to the test compound for 48 hours. Compounds are tested at a single concentration, which is 10^-5 M for most compounds. The reported endpoint is percent growth (GI% or GIPRCNT), where numbers from 0 - 100% represent growth inhibition, and numbers from -100% - 0 represent cell death. For example, a value of 40 represents 60% growth inhibition. A value of 0 means no net growth occurred over the course of the experiment. […]
Compounds without any hit were thinned out: in the full panel of roughly 83,000, 20% have a hit.
Property: growth (%)

[
  {
    "Compound": "C/C(=N\\NC(=S)Nc1ccccc1)c1ccccn1",
    "Quantitative Result": 17.6
  },
  {
    "Compound": "Cc1ccc(O)c(Cc2ccccc2)c1",
    "Quantitative Result": 93.7
  },
  {
    "Compound": "CCCCN(CCCC)CCC(O)c1cc2ccc(C(F)(F)F)cc2c2cc(C(F)(F)F)ccc12 (centres undefined)",
    "Quantitative Result": 41.6
  },
  {
    "Compound": "CC1=C(O)C(=O)C(c2c(C)cc(C)c(Br)c2C)=C(O)C1=O",
    "Quantitative Result": 86.5
  },
  {
    "Compound": "CNC(=O)c1ccccc1Sc1ccc2c(/C=C/c3ccccn3)n[nH]c2c1",
    "Quantitative Result": 31.5
  },
  {
    "Compound": "COc1cccc(NC(=O)c2c(-c3ccccc3)c(-c3ccccc3)n[nH]c2=O)c1",
    "Quantitative Result": 97.9
  },
  {
    "Compound": "COC1CC(N)C2OC(c3ccccc3)OCC2O1 (centres undefined)",
    "Quantitative Result": 95.4
  },
  {
    "Compound": "N#Cc1c(N)c(C(=O)c2ccc3c(c2)OCCO3)n2c1CCCC2",
    "Quantitative Result": 45.9
  },
  {
    "Compound": "C=CCn1c(SCC(=O)Nc2ccc(C(=O)/C=C/c3ccc(Cl)cc3)cc2)nnc1-c1ccc(Cl)cc1",
    "Quantitative Result": 99
  },
  {
    "Compound": "Nc1cccc(S(=O)(=O)c2cccc(N)c2)c1",
    "Quantitative Result": 119
  },
  {
    "Compound": "CCN(CC)Cc1cc(Nc2nc(NC3CCC(N(C)C)CC3)c3ccccc3n2)ccc1OC (centres undefined)",
    "Quantitative Result": -32.6
  },
  {
    "Compound": "COc1ccc(/C=C/C(=O)c2ccc(NC(=O)CSc3nnc(-c4ccc(Cl)cc4)n3-c3ccccc3)cc2)cc1",
    "Quantitative Result": 86.7
  },
  {
    "Compound": "Cc1c(O)c(=O)n(-c2ccccc2)n1C",
    "Quantitative Result": 119
  },
  {
    "Compound": "CC(=O)c1c(C)nc(-c2cc(C)cc(Cl)c2)nc1-c1cccc(Oc2ccccc2)c1",
    "Quantitative Result": 81.1
  },
  {
    "Compound": "[Ag].[Ag].[NH-]S(=O)(=O)c1ccc(N=Nc2cc(N=Nc3ccc(S([NH-])(=O)=O)cc3)c3c(NC(=O)C(Cl)Cl)cccc3c2OC(=O)C(Cl)Cl)cc1.[c-]1nccs1.[c-]1nccs1",
    "Quantitative Result": 82.4
  },
  {
    "Compound": "CN(C)CCOc1nc2c3cccnc3cc(-c3cccc(Cl)c3)c2c2ncccc12",
    "Quantitative Result": -57.5
  },
  {
    "Compound": "N#CC1=C(N)Oc2nc[nH]c(=O)c2C1c1cccs1 (centres undefined)",
    "Quantitative Result": 98.4
  },
  {
    "Compound": "O=C(/C=C/c1ccccc1)n1c(-c2ccccc2)nc2ccccc21",
    "Quantitative Result": 92.4
  },
  {
    "Compound": "Cc1cc(C)cc(Nc2cc(C)nc3nc(C(F)(F)F)nn23)c1",
    "Quantitative Result": 30.7
  },
  {
    "Compound": "CC(=O)c1nn(-c2ccccc2)/c(=N\\N=C\\c2coc3ccc(F)cc3c2=O)s1",
    "Quantitative Result": 116
  },
  {
    "Compound": "COc1ccc(C(=O)c2cc(C)c(OC)c(C)c2)cc1OC(=O)CCl",
    "Quantitative Result": 56.8
  },
  {
    "Compound": "CCSc1ccc([C@@H]2[C@@H](O)C(=O)N2c2cc(OC)c(OC)c(OC)c2)cc1",
    "Quantitative Result": 66.5
  },
  {
    "Compound": "COc1ccc(CCN2COc3c([C@@H](C)CCC=C(C)C)ccc(C)c3C2)cc1OC",
    "Quantitative Result": 48.1
  },
  {
    "Compound": "O=C(O)c1cn(-c2ccccc2)nc1-c1ccc(O)cc1",
    "Quantitative Result": 85.1
  },
  {
    "Compound": "C=CCn1c(C)nc2cc(Nc3nc(N4CCOCC4)nc4nc[nH]c34)ccc21",
    "Quantitative Result": 94
  },
  {
    "Compound": "COc1cc2c(cc1OCCCOc1cc3c(cc1OC)C(=O)N1CCC[C@H]1C=N3)C=CC(C)(C)O2",
    "Quantitative Result": 83.9
  },
  {
    "Compound": "Cn1nc(C(F)(F)F)cc1-c1cc(Cl)c(OCc2ccc(Cl)cc2)c(-c2ccc(Cl)c(C(F)(F)F)c2)c1O",
    "Quantitative Result": 1.55
  },
  {
    "Compound": "[O-]/[N+](=C\\c1ccccc1)CC1(O)CCCCC1",
    "Quantitative Result": 102
  },
  {
    "Compound": "c1ccc(C2=Nc3ccccc3SC2)cc1",
    "Quantitative Result": 105
  },
  {
    "Compound": "C=CCn1c(SCC(=O)Nc2ccc(/C(C)=N\\O)cc2)nnc1-c1cc(-c2ccccc2)nc2ccccc12",
    "Quantitative Result": 75.6
  },
  {
    "Compound": "Clc1ncnc2scc(C3COc4ccccc4O3)c12 (centres undefined)",
    "Quantitative Result": 93.2
  },
  {
    "Compound": "COc1ccc(-c2oc(=O)ccc2-c2cc(OC)c(OC)c(OC)c2)cc1F",
    "Quantitative Result": 66.4
  },
  {
    "Compound": "O=c1[nH]c2cc(Cl)c(Cl)cc2o1",
    "Quantitative Result": 114
  },
  {
    "Compound": "CC(=O)O[C@H]1[C@H](CC#CC#CC[C@@H]2C[C@]3(C)[C@H]4CC=C5[C@H]6[C@@H](C)[C@H](C)CC[C@]6(C(=O)NCCCCCCCCN)CC[C@@]5(C)[C@]4(C)CC[C@H]3C(C)(C)[C@H]2OC(C)=O)C[C@]2(C)[C@H]3CC=C4[C@H]5[C@@H](C)[C@H](C)CC[C@]5(C(=O)NCCCCCCCCN)CC[C@@]4(C)[C@]3(C)CC[C@H]2C1(C)C",
    "Quantitative Result": 106
  },
  {
    "Compound": "N#Cc1c(NN)n(C2OC(CO)C(O)C2O)c2ncnc(N)c12 (centres undefined)",
    "Quantitative Result": -26.3
  },
  {
    "Compound": "COc1cc(C2Nc3ccccc3S2)cc(CN2CCOCC2)c1O (centres undefined)",
    "Quantitative Result": 78.2
  },
  {
    "Compound": "Cc1ccccc1CNc1ncnc2[nH]ncc12",
    "Quantitative Result": 107
  },
  {
    "Compound": "Cc1ccc(-c2nc3ccccc3c(=O)n2/N=C/c2cccc3ccccc23)cc1",
    "Quantitative Result": 86.4
  },
  {
    "Compound": "O=C(NCC(c1ccsc1)N1CCCCCC1)c1ccc(C(F)(F)F)cc1 (centres undefined)",
    "Quantitative Result": 108
  }
]

Hey, just so you know, these numbers are from PubChem BioAssay (NCI).
